molecular target: human activated protein C (human, UniProt P04070 43-197; P04070 212-461); assay: cell-based or functional assay
Field 'label' (enum: rule met / rule not met). Set to rule met when Mean clotting time (s), FVIII-deficient plasma, APC-antibody concentration 0.5 ug/ml is strictly under 300 s; else rule not met.

| Binder | Label Class |
| --- | --- |
| HAPC-14-10 (antibody, V domains shown, Whole IgG, backbone hIgG1; also called HPAC 14-10) VH: EVQLVESGGGLVQPGGSLRLSCAASGFTFSNYYLNWVRQAPGKGLEWVGDIRLKKNNYEKHYAESVKGRFTISRDDSKSITYLQMNSLRAEDTAVYYCAREGDTFDYWGQGTTVTVSS VL: DIQLTQSPSSLSASVGDRVTITCRASESVDSFGATFMHWYQQKPGKAPKLLIYLASRLGSGVPSRFSGSGSGTDFTLTISSLQPEDFATYYCVQNNEDPYTFGQGTKLEIK | rule met |

## Task A record lists HAPC-14-6 (antibody, V domains shown, Whole IgG, backbone hIgG1; also called HPAC 14-6; No. 6) VH: EVQLVESGGGLVQPGGSLRLSCAASGFTFSFYYLNWVRQAPGKGLEWVGDIRLKKNNYEKHYAESVKGRFTISRDDSKSITYLQMNSLRAEDTAVYYCAREGDYFDYWGQGTTVTVSS VL: DIQLTQSPSSLSASVGDRVTITCRASESVDSFGATFMHWYQQKPGKAPKLLIYLASRLGSGVPSRFSGSGSGTDFTLTISSLQPEDFATYYCQQNNEDPYTFGQGTKLEIK . Is its Mean clotting time (s), FVIII-deficient plasma, APC-antibody concentration 0.5 ug/ml below 300 s?
## Result rule met

## Task A record lists HAPC-14-8 (antibody, V domains shown, Whole IgG, backbone hIgG1; also called HPAC 14-8) VH: EVQLVESGGGLVQPGGSLRLSCAASGFTFSFYYLNWVRQAPGKGLEWVGDIRLKKNNYEKHYAESVKGRFTISRDDSKSITYLQMNSLRAEDTAVYYCAREGDTFDYWGQGTTVTVSS VL: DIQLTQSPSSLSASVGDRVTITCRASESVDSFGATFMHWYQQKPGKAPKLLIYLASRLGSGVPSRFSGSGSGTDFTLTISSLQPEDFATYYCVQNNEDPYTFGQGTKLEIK . Is its Mean clotting time (s), FVIII-deficient plasma, APC-antibody concentration 0.5 ug/ml below 300 s?
## Result rule met

## Task A record lists Humanized antibody 14 (HAPC-14) (antibody, V domains shown, also called Humab001-14; NO; 14 antibody) VH: EVQLVESGGGLVQPGGSLRLSCAASGFTFSNYYLNWVRQAPGKGLEWVGDIRLKSNNYEKHYAESVKGRFTISRDDSKSITYLQMNSLRAEDTAVYYCAREGDYFDYWGQGTTVTVSS VL: DIQLTQSPSSLSASVGDRVTITCRASESVDSFGATFMHWYQQKPGKAPKLLIYLASNLESGVPSRFSGSGSGTDFTLTISSLQPEDFATYYCQQNNEDPYTFGQGTKLEIK . Is its Mean clotting time (s), FVIII-deficient plasma, APC-antibody concentration 0.5 ug/ml below 300 s?
## Result rule not met

Taken from patent US20250277057A1.
